# System: U2OS
# assay: Multiplex assay against U2OS
# Assay type: toxicity, cell-based
# measurement context: human, 48 h, 1 µM, compound concentration 1 uM, replicate 1
Non-standard residues stand in square brackets, D forms with d. Residues, ends and D or L forms follow the SMILES beside them.
metric: Population Healthy Nuclei (%)

| compound | unit label | recorded result |
| --- | --- | --- |
| CN(C)C(=O)Cn1cc(-c2ccc(-c3nnc4ccccn34)cc2)cn1 | % | 75 |
| COc1cc2nc(N3CCN(C(=O)c4ccco4)CC3)nc(N)c2cc1OC.Cl [PRAZOSIN HYDROCHLORIDE] | % | 74 |
| COc1cc(OC2CCN(C(C)=O)CC2)ccc1C(=O)N1CCC(N2C(=O)OCc3ccccc32)CC1 | % | 77 |
| CC(C)C[C@@H]1NC(=O)[C@@H](C(C)C)NC(=O)[C@@H]2CCCN2C(=O)[C@@H](CC(=O)O)NC(=O)[C@@H](Cc2c[nH]c3ccccc23)NC1=O [BQ-123] (cyclo(L[dW][dD]P[dV])) | % | 79 |

----------
# Population Hoechst High Intensity Objects (%) listing for each entry below
# Tested on: U2OS
# assay: Multiplex assay against U2OS
# Type: toxicity, cell-based
# measurement context: human, 24 h, 10 µM, compound concentration 10 uM, replicate 1
metric: Population Hoechst High Intensity Objects (%)

| compound | unit label | recorded result |
| --- | --- | --- |
| S=C(NCCCc1c[nH]cn1)NCCCN(Cc1ccc(Cl)c(Cl)c1)c1ccc(Br)cn1 | % | 5 |
| COc1c(Nc2ccc(S(C)(=O)=O)nc2C)ncnc1OC1CCN(C(=O)OC(C)C)CC1 [ADP-597] | % | 6 |
| C=CCN1C[C@H](C(=O)N(CCCN(C)C)C(=O)NCC)C[C@@H]2c3cccc4[nH]cc(c34)C[C@H]21 [CABERGOLINE] | % | 3 |
| O=C(O)CCC/C=C\CC1C(O)CC(O)C1/C=C/C(O)COc1cccc(Cl)c1 (stereo not drawn) [CLOPROSTENOL] | % | 2 |
| Cc1cc(NC(=O)NCCN2CCC(O)(Cc3ccccc3)CC2)c2ccccc2n1 [PALOSURAN] | % | 3 |
| Cc1cc(-c2ccc3c(c2)CC[C@H]3N2CC3(CCN(C(=O)Cc4cn5cc(C)sc5n4)CC3)C2)ncn1 [PF-5190457] | % | 2 |
| COc1cc(OC2CCN(C(C)=O)CC2)ccc1C(=O)N1CCC(N2C(=O)OCc3ccccc32)CC1 | % | 5 |
| CC(C)(O)C(=O)N1CCN(c2ccc(C(F)(F)F)c(C3=C(c4c[nH]c5ccccc45)C(=O)NC3=O)c2)CC1 | % | 6 |
| Nc1nc(-c2ccco2)c2cnn(Cc3ccccc3F)c2n1 | % | 5 |
| OCCCNc1cc(-c2ccnc(Nc3cccc(Cl)c3)n2)ccn1 | % | 11 |
| COc1ccc2[nH]c(I)c(CCNC(C)=O)c2c1 [IODOMELATONIN] | % | 1 |
| O=c1ccc2ccc(OCCCCN3CCN(c4cccc5sccc45)CC3)cc2[nH]1 [BREXPIPRAZOLE] | % | 13 |
| COC(c1ccccc1)(c1ccccc1)[C@H](Oc1nc(C)cc(C)n1)C(=O)O [AMBRISENTAN] | % | 1 |
| Cc1sc2c(c1C)C(c1ccc(Cl)cc1)=N[C@H](CC(=O)OC(C)(C)C)c1nnc(C)n1-2 | % | 2 |
| COc1ccc2c(c1OCc1ccccc1)C[C@@H](C(=O)O)N(C(=O)C(c1ccccc1)c1ccccc1)C2 [OLODANRIGAN] | % | 1 |
| CN(C)C(=O)Cn1cc(-c2ccc(-c3nnc4ccccn34)cc2)cn1 | % | 2 |
| CC(C)C[C@H](CO)Nc1nc(S[C@@H](C)c2ccccc2)nc2nc(N)sc12 [AZD-8797] | % | 3 |
| COCCCN1CCC(NC(=O)c2cc(Cl)c(N)c3c2OCC3)CC1 [PRUCALOPRIDE] | % | 4 |

----------
# System: U2OS
# assay: Multiplex assay against U2OS
# Format: toxicity, cell-based
# measurement context: human, 12 h, 1 µM, compound concentration 1 uM, replicate 1
Non-standard residues stand in square brackets, D forms with d. Residues, ends and D or L forms follow the SMILES beside them.
Quick rule: Population Apoptotic (%) of at least 80% means Criterion met, below that means Criterion not met.

| compound | measured target | class |
| --- | --- | --- |
| Cc1cc(=O)n(C)c2cc(N3C(=O)CC[C@H](NS(=O)(=O)CC(C)C)[C@H]3c3ccc(Cl)cc3)ccc12 | U2OS | Criterion met |
| Cn1cc(C(=O)OCC2CCN(CCNS(C)(=O)=O)CC2)c2ccccc21 | U2OS | Criterion not met |
| CN1CCN2c3ccccc3Cc3ccccc3C2C1.Cl (stereo unspecified) [MIANSERIN HYDROCHLORIDE] | U2OS | Criterion met |
| O=c1nc2[nH]c3ccccc3nc-2c(=O)[nH]1 [ALLOXAZINE] | U2OS | Criterion not met |
| C=CCN1C[C@H](C(=O)N(CCCN(C)C)C(=O)NCC)C[C@@H]2c3cccc4[nH]cc(c34)C[C@H]21 [CABERGOLINE] | U2OS | Criterion met |
| CCCCCCNC(=O)Nc1ccc(S(=O)(=O)Nc2ccc(CCNC[C@H](O)COc3ccc(O)cc3)cc2)cc1 [L-755507] | U2OS | Criterion met |
| O=C(NCCNCC(O)COc1ccc(O)cc1)N1CCOCC1.O=C(NCCNCC(O)COc1ccc(O)cc1)N1CCOCC1.O=C(O)/C=C/C(=O)O (stereo unspecified) [XAMOTEROL FUMARATE] | U2OS | Criterion not met |
| O=C(O)CCC/C=C\CC1C(O)CC(O)C1/C=C/C(O)COc1cccc(Cl)c1 (stereo unspecified) [CLOPROSTENOL] | U2OS | Criterion not met |
| COc1cc(C(=O)N2CC[C@@H](O)[C@@H](N)C2)cc2nc(-c3cc4ccccc4n3CC3CC3)n(C)c12.Cl | U2OS | Criterion not met |
| Cc1nn(C)c2nc(NNC(=O)Nc3cc(Cl)nc(Cl)c3)cc(C(C)C)c12 | U2OS | Criterion not met |
| C[C@@H]1CC(=O)Nc2cccc(-c3ccc4c(c3)c(-c3cnn(C)c3)nn4C)c2N1 | U2OS | Criterion met |
| Cl.Cl.OCCOCCN1CCN(C(c2ccccc2)c2ccc(Cl)cc2)CC1 (stereo unspecified) [HYDROXYZINE HYDROCHLORIDE] | U2OS | Criterion not met |
| COc1cc(Nc2ncc3c(n2)-c2ccc(Cl)cc2C(c2c(F)cccc2OC)=NC3)ccc1C(=O)O [ALISERTIB] | U2OS | Criterion not met |
| CCn1c(-c2nc3cc(C(=O)N4CCCC(N)C4)ccc3n2C)cc2ccccc21.Cl (stereo unspecified) | U2OS | Criterion not met |
| CC(C)C[C@@H]1NC(=O)[C@@H](C(C)C)NC(=O)[C@@H]2CCCN2C(=O)[C@@H](CC(=O)O)NC(=O)[C@@H](Cc2c[nH]c3ccccc23)NC1=O [BQ-123] (cyclo(L[dW][dD]P[dV])) | U2OS | Criterion not met |
| COCCn1c(C)c(C)s/c1=N\C(=O)C1C(C)(C)C1(C)C | U2OS | Criterion met |
| COc1ccc2[nH]c(I)c(CCNC(C)=O)c2c1 [IODOMELATONIN] | U2OS | Criterion not met |
| COc1cc2nc(N3CCN(C(=O)COc4c(OC)cccc4C(C)C)CC3)nc(N)c2cc1OC.Cl.Cl | U2OS | Criterion not met |
| CC(C)(O)C(=O)N1CCN(c2ccc(C(F)(F)F)c(C3=C(c4c[nH]c5ccccc45)C(=O)NC3=O)c2)CC1 | U2OS | Criterion met |
| COc1cc(OC2CCN(C(C)=O)CC2)ccc1C(=O)N1CCC(N2C(=O)OCc3ccccc32)CC1 | U2OS | Criterion not met |
| CCc1nn2c(C)cc(C)nc2c1Cc1ccc(-c2nnc(C3CCNCC3)o2)cc1 | U2OS | Criterion not met |
| CCC(=O)OCC(=O)[C@@]1(OC(=O)CC)[C@@H](C)C[C@H]2[C@@H]3CCC4=CC(=O)C=C[C@]4(C)[C@@]3(Cl)[C@@H](O)C[C@@]21C [BECLOMETHASONE DIPROPIONATE] | U2OS | Criterion met |
| CN1CCC(C(=O)c2cccc(NC(=O)c3c(F)cc(F)cc3F)n2)CC1 | U2OS | Criterion met |

----------
# Tested on: Fibroblast
# assay: Multiplex assay against human fibroblast
# Type: toxicity, cell-based
# measurement context: 12 h, 1 µM, compound concentration 1 uM, replicate 2
Label rule, in plain words: Population Tubulin-Different-Phenotype (%) of 50% and up is y, under 50% is n.

| compound | measured target | class |
| --- | --- | --- |
| OCCCNc1cc(-c2ccnc(Nc3cccc(Cl)c3)n2)ccn1 | Fibroblast | n |
| COc1cc2nc(N3CCN(C(=O)c4ccco4)CC3)nc(N)c2cc1OC.Cl [PRAZOSIN HYDROCHLORIDE] | Fibroblast | n |
| CN1CCC(C(=O)c2cccc(NC(=O)c3c(F)cc(F)cc3F)n2)CC1 | Fibroblast | n |
| COc1ccc2[nH]c(I)c(CCNC(C)=O)c2c1 | Fibroblast | n |
| O=C(NCCNCC(O)COc1ccc(O)cc1)N1CCOCC1.O=C(NCCNCC(O)COc1ccc(O)cc1)N1CCOCC1.O=C(O)/C=C/C(=O)O (stereo unspecified) [XAMOTEROL FUMARATE] | Fibroblast | y |
